Source listed as patent US20240301062A1.

- TARGET_ENTITY: T1, cyno CLDN6 (cyno)
- T1 construct: whole, on cells; also called cynomolgus CLDN6
- EXPERIMENT_NOTES: FACS, HEK293T_cyno-CLDN6 cells

# BINDER, UNITS_OF_MEASURE, EC50
data = [
    ("BG87P-33 (antibody, V domains shown, Framework-swapped variant; also called BG87-33) VH: EVQLQESGGGLVQPGGSLRLSCAASGYSFTDYHINWVRQAPGKGLEWVSYIYPGSGHTKYNEKFKGRFTISRDTSKNTAYLQMNSLRAEDTAVYYCARSGIYHYVSSYYFDHWGQGTLVTVSS VL: DIQMTQSPSTLSASVGDRVTITCKASQDAGSAVAWYQQKPGKAPKLLIYWASTRHTGVPSRFSGSGSGTEFTLTISSLQPDDFATYYCQQYSSYTFGGGTKVEIK", "nM", 25.8),
]
